target: human CD3 on the cell surface (Jurkat cells, expanded human T cells, Jurkat-Lucia NFAT cells, human PBMC) (human, UniProt P07766 23-207; P04234 22-171; P09693 23-182); assay: cell-based or functional assay
Sequence (P07766 23-207, chain 1 of 3): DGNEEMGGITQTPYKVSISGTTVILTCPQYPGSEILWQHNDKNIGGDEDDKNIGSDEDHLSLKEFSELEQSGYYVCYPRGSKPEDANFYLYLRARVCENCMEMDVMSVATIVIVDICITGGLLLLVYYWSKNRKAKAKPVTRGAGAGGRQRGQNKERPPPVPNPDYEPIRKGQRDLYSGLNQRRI
Sequence (P04234 22-171, chain 2 of 3): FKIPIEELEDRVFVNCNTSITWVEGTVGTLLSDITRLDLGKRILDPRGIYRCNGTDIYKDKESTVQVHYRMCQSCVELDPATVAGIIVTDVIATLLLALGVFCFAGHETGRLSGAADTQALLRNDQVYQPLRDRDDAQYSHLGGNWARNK
Sequence (P09693 23-182, chain 3 of 3): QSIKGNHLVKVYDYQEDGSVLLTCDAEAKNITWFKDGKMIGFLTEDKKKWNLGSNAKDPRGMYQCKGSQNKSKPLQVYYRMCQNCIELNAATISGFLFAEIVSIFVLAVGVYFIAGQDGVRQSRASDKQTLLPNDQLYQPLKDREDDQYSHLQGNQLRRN
property.name: Maximum response value (RLU)

binder	observed.result
5-7.13 human-murine chimeric antibody (antibody, human IgG1, kappa, V domains shown, Human IgG1 chimera) VH: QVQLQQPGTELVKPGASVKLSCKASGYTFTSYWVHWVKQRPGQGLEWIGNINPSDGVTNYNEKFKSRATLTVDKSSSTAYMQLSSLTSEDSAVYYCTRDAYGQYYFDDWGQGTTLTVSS VL: DIVMSQSPSSLVVSAGEKVTMSCKSSQSLLNSRTRKNYLAWYQQKPGQSPKLLIYWASVRDSGVPDRFTGSGSGTDFTLTISNVQAEDLAVYYCIQSYYLRTFGGGTILEIKR	55400 RLU
40G5c-hIgG1 (antibody, V domains shown) VH: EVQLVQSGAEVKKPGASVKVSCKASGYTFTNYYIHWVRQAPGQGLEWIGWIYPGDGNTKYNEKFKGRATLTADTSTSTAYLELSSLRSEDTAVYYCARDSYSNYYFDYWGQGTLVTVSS VL: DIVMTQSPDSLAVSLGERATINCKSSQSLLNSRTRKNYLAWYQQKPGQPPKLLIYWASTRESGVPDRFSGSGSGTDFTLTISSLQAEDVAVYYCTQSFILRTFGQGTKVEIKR	46900 RLU
5-40.21 human-murine chimeric antibody (antibody, human IgG1, kappa, V domains shown, Human IgG1 chimera) VH: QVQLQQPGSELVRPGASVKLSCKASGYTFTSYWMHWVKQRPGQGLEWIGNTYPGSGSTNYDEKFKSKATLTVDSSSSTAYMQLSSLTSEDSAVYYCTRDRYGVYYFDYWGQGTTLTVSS VL: DIVMSQSPSSLAVSAGEKVTMSCKSSQSLLNSRTRKNYLAWYQQKPGQSPKLLIYWASTRESGVPDRFSGSGSGTDFTLTISSVQAEDLAVYYCTQSYNLRTFGGGTKLEIKR	46200 RLU
6-44.5 human-murine chimeric antibody (antibody, human IgG1, kappa, V domains shown, Human IgG1 chimera) VH: EVQLQQSGPELVKPGASVKMSCKASGHTFTSHIMHWVKQKPGQGLEWIGYINPNNDRTEYSEKFKGKATLTSDKSSSTAYMELSSLTSEDSAVYYCAGEAYYSNSLYAMDYWGQGTSVTVSS VL: DIVMSQSPSSLAVSAGEKVTMSCKSSQSLFNSRTRKNYLAWYQQKPGQSPELLIYWASTRESGVPVRFTGSGSGTDFTLTISSVQAEDLAVYYCKQSYYLRTFGGGTKLEVKR	33600 RLU
6-35.22 human-murine chimeric antibody (antibody, human IgG1, kappa, V domains shown, Human IgG1 chimera) VH: EVKLVESGGGLVQPGASLSLSCAASGFTFTDYYMSWVRQPPGKALEWLAMSRNKAKGHTIEYSSSVKGRFTISRDNSQSILYLQMNALRAEDSATYYCARDTYESYDGYFDVWGAGTTVIVSS VL: DIVMSQSPSSLAVSAGETVTMSCKSSQSLFNSRSRKNYLAWYQQKPGQTPKLLIYWASIRESGVPDRFTGSGSGTDFTLTISSVQAEDLAVYYCKQSYYLYTFGSGTKLEIKR	27000 RLU
